Entries and their Internalization %, MDA-MB-231, 1 µg/ml, 2 h
# tgt: T1, human Trop-2 expressed on cell surface (human, UniProt P09758 27-323)
# T1 sequence (looked up): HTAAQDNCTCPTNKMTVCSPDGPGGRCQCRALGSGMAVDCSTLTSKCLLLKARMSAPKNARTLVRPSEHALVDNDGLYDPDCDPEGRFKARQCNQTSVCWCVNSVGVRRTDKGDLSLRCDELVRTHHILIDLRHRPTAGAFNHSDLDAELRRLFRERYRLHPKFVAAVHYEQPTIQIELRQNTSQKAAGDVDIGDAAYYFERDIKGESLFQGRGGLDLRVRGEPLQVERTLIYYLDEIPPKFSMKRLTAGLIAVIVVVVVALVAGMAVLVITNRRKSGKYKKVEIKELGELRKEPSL
# assay-details: cell-based or functional assay
Report the figure in % without appending any unit label.

binder | observed-value
10A9-2 (antibody, V domains shown) VH: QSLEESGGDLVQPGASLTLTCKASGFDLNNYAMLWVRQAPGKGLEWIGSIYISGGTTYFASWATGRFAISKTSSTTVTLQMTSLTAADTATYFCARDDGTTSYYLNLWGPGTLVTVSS VL: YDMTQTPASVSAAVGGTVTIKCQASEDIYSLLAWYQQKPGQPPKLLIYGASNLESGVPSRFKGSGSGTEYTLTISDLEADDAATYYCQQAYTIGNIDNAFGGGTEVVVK | 43

Problem: Please look up its Internalization %, MDA-MB-231, 1 µg/ml, 2 h: 1D10 (antibody, V domains shown, Rabbit-derived clone; LEM construct: VH + rabbit IgG CH1 + human IgG1 CH2-CH3) VH: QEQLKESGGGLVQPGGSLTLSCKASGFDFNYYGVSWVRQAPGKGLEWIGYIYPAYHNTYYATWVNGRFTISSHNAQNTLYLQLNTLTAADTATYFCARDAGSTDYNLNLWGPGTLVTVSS VL: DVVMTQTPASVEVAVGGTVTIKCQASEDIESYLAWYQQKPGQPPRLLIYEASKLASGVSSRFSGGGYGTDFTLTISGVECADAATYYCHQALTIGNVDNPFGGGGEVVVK
Result: 41

Problem: Please look up its Internalization %, MDA-MB-231, 1 µg/ml, 2 h: 72F12 (antibody, V domains shown, Rabbit-derived clone; LEM construct: VH + rabbit IgG CH1 + human IgG1 CH2-CH3) VH: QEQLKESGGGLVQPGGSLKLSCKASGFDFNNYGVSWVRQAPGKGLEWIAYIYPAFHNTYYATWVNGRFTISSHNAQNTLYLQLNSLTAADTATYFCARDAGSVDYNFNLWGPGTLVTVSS VL: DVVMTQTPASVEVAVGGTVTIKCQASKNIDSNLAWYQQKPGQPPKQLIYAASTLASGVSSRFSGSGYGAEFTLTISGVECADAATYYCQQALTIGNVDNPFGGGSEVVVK
Result: 35

Problem: Please look up its Internalization %, MDA-MB-231, 1 µg/ml, 2 h: 65D5 (antibody, V domains shown, Rabbit-derived clone; LEM construct: VH + rabbit IgG CH1 + human IgG1 CH2-CH3) VH: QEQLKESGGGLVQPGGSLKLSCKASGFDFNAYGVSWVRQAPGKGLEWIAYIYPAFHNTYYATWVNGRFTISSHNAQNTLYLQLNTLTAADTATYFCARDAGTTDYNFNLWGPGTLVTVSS VL: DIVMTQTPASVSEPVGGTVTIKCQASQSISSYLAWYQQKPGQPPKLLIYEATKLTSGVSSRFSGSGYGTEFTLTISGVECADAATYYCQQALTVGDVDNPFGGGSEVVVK
Result: 37

Problem: Please look up its Internalization %, MDA-MB-231, 1 µg/ml, 2 h: 62E3 (antibody, V domains shown, Rabbit-derived clone; LEM construct: VH + rabbit IgG CH1 + human IgG1 CH2-CH3) VH: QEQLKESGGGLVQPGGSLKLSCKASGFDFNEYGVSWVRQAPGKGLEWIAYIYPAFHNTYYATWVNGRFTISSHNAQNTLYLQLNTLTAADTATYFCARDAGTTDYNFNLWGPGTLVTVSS VL: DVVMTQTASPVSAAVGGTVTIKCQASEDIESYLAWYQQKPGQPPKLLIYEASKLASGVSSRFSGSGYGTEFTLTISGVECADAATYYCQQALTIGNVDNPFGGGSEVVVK
Result: 43

# credit: patent US20250206841A1
